FYI, the data here is from patent US20050020492A1.

- subject_of_test: human MCH-2R (human, UniProt Q969V1 1-340)
- Sequence (Q969V1 whole entry): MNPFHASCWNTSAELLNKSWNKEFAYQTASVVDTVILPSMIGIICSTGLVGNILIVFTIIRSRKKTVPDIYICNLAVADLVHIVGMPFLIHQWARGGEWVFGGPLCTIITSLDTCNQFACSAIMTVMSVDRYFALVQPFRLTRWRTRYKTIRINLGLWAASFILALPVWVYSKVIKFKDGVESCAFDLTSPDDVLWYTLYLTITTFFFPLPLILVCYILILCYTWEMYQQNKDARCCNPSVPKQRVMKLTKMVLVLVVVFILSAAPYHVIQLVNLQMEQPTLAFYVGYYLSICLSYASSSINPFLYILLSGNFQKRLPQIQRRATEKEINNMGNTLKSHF
- assay_summary: cell-based or functional assay
experimental_endpoint: EC50

Kindly note the recorded EC50 for XMLGRVYRPC (Ac-Arg^6 segment eliminated; Mpr, des-amino-cysteine (3-mercaptopropionic acid) at position 7 instead of Cys; C-terminal amide; disulfide ring) [SEQ. ID. NO. 15 (Δ(X^6-Cys^7), Mpr^7 analog of Ac-hMCH(6-16)-NH2)] , which is > 3000 nM
